target: hNPR-A (Homo sapiens, UniProt P16066)
Sequence (P16066 33-1061): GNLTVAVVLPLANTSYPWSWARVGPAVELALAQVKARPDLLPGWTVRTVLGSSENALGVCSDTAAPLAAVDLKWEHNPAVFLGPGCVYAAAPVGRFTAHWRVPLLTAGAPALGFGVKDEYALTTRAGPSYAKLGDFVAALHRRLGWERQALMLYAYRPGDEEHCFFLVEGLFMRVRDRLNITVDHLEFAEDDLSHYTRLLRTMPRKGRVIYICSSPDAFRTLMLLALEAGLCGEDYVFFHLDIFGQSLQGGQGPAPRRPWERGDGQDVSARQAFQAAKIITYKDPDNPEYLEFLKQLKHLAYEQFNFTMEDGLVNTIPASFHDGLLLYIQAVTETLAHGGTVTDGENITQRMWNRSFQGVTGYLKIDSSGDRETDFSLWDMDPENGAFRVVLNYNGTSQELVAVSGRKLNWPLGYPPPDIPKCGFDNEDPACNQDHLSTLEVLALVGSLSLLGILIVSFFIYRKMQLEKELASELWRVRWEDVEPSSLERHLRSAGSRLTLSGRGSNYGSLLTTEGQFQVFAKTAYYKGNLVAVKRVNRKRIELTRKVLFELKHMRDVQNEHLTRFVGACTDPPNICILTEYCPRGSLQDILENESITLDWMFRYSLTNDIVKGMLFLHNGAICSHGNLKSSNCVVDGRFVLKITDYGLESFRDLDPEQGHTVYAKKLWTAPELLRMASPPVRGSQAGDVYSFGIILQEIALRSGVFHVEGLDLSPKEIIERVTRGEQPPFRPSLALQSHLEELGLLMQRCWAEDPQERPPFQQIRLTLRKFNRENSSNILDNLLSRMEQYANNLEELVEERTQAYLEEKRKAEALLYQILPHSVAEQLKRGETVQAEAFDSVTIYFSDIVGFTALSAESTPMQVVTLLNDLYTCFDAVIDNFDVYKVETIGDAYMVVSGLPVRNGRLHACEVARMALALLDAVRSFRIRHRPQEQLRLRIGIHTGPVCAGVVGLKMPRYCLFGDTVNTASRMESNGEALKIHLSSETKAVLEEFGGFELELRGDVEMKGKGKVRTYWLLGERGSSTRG
assayDetails: Accumulation of intracellular cGMP in HEK-293 cells that express recombinant hNPR-A
testConditions: HEK-hNPRA cells
Bridge positions count the residues as written; N and C are the ends. Square brackets hold non-standard residues; d marks the D form. Peptide text beside a SMILES is read from it. * marks the point of attachment. X1 = N=C(N)NCCC[C@H]1C(=O)N[C@@H](C(N)=O)CN1*; dNle = CCCC[C@@H](N)C(=O)O; Heptanoyl = CCCCCCC(=O)*; Dab = NCC[C@H](N)C(=O)O
endpoint: EC50 (nM)
Numeric answer only, unit nM assumed.

Bench note, hNPR-A (Homo sapiens, UniProt P16066): CCCCCCC(=O)NCC[C@@H]1NC(=O)CC[C@@H](C(=O)N[C@@H](Cc2ccc(O)cc2)C(=O)N2C[C@H](C(N)=O)NC(=O)[C@@H]2CCCNC(=N)N)NC(=O)[C@H](CO)NC(=O)[C@H]([C@@H](C)CC)NC(=O)[C@H](CCCNC(=N)N)NC(=O)[C@H](CC(=O)O)NC(=O)[C@@H](CCCC)NC(=O)[C@H](CCCNC(=N)N)NC(=O)CNC(=O)[C@@H](C)NC(=O)[C@H](Cc2ccccc2)NC(=O)[C@H](Cc2c[nH]cn2)NC1=O [3-75] ([Dab](Heptanoyl)HF[dA]GR[dNle]DRISEY-X1; lactam N-12) , EC50 reads 5
